- Assay name: Cytotoxicity against human A549 cells after 72 hrs by MTT assay
- Format: functional, cell-based
- Assay context: A549, 72 h
pIC50: −log10 of the molar value.
Assay endpoint: pIC50

Look over these answered cases.
| Compound smiles | pIC50 |
| --- | --- |
| CNC(=O)c1cc(Oc2ccc(NC(=O)c3nccc(-c4cccc(Cl)c4)n3)cc2)ccn1 | < 4.00 |
| CNC(=O)c1cc(Oc2ccc(NC(=O)c3cc(-c4ccc(Cl)cc4)ncn3)cc2)ccn1 | < 4.00 |

As a next step, examine the compound that follows.
-- ask Look at this compound and give its reported pIC50. CNC(=O)c1cc(Oc2ccc(NC(=O)c3cc(-c4ccc(Br)cc4)ncn3)cc2F)ccn1
-- reply < 4.00
